Source: PubChem BioAssay AID1919017

System: SW1271 complex spheroids with HUVEC/MSC, growth, % test/control
Protocol description: Anticancer human tumor SW1271 cell line growth inhibition [AhR];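 note: spheroids exposed to agents for 7 days before readout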
Measurement setup: second compound 10 µM; first compound 0.0316 µM; stronger effect = lower value
Readings of viability, T/C for the listed compounds
Enter your answer as a number in %; do not include the unit.

A selection of reference data follows.
- Compound: "CC[C@@]1(O)C(=O)OCc2c1cc1n(c2=O)Cc2cc3c(CN(C)C)c(O)ccc3nc2-1 + Cc1cncc(-c2nc(NCCc3c[nH]c4ccccc34)c3ncn(C(C)C)c3n2)c1"
  Units: "%"
  viability, T/C: 45
- Compound: "O=C(C=Cc1cccc(S(=O)(=O)Nc2ccccc2)c1)NO + CC(CO)NC(=O)c1cc(-c2ccc(Cl)cc2)nn(-c2cnn(C)c2)c1=O"
  Units: "%"
  viability, T/C: 90.2
- Compound: "Nc1ccn(C2OC(CO)C(O)C2(F)F)c(=O)n1 (stereo not drawn) + Cc1ccccc1N=Nc1ccc(NC(=O)c2ccnn2C)c(C)c1"
  Units: "%"
  viability, T/C: 56.5
- Compound: "O=C(C=Cc1cccc(S(=O)(=O)Nc2ccccc2)c1)NO + Cc1cncc(-c2nc(NCCc3c[nH]c4ccccc34)c3ncn(C(C)C)c3n2)c1"
  Units: "%"
  viability, T/C: 49.9
- Compound: "O=C(c1cc(Cc2n[nH]c(=O)c3ccccc23)ccc1F)N1CCN(C(=O)C2CC2)CC1 + Cc1ccccc1N=Nc1ccc(NC(=O)c2ccnn2C)c(C)c1"
  Units: "%"
  viability, T/C: 89.4
- Compound: "COc1cccc2c1C(=O)c1c(O)c3c(c(O)c1C2=O)CC(O)(C(=O)CO)CC3OC1CC(N)C(O)C(C)O1 (stereo not drawn) + CC(CO)NC(=O)c1cc(-c2ccc(Cl)cc2)nn(-c2cnn(C)c2)c1=O"
  Units: "%"
  viability, T/C: 58.7
- Compound: "Nc1ncn(C2CC(O)C(CO)O2)c(=O)n1 (stereo not drawn) + Cc1ccccc1N=Nc1ccc(NC(=O)c2ccnn2C)c(C)c1"
  Units: "%"
  viability, T/C: 66.1
- Compound: "O=C(c1cc(Cc2n[nH]c(=O)c3ccccc23)ccc1F)N1CCN(C(=O)C2CC2)CC1 + CC(CO)NC(=O)c1cc(-c2ccc(Cl)cc2)nn(-c2cnn(C)c2)c1=O"
  Units: "%"
  viability, T/C: 67.8
- Compound: "COc1ccc([C@@H](O)c2cc(-c3ncnc4cc(N5CCOCC5)ccc34)c(F)cc2Cl)nn1 + Cc1ccccc1N=Nc1ccc(NC(=O)c2ccnn2C)c(C)c1"
  Units: "%"
  viability, T/C: 89.5
- Compound: "NS(=O)(=O)OCC1CC(n2ccc3c(NC4CCc5ccccc54)ncnc32)CC1O (stereo not drawn) + CC(CO)NC(=O)c1cc(-c2ccc(Cl)cc2)nn(-c2cnn(C)c2)c1=O"
  Units: "%"
  viability, T/C: 86.2

I have this compound here, O=C(C=Cc1cccc(S(=O)(=O)Nc2ccccc2)c1)NO + Cc1ccccc1N=Nc1ccc(NC(=O)c2ccnn2C)c(C)c1 , and I need its recorded viability, T/C.
104

Quick check: viability, T/C of COc1cc(C2c3cc4c(cc3C(OC3OC5COC(C)OC5C(O)C3O)C3COC(=O)C23)OCO4)cc(OC)c1O (stereo not drawn) + Cc1ccccc1N=Nc1ccc(NC(=O)c2ccnn2C)c(C)c1 ?
62

Quick one: viability, T/C for COc1ccc([C@@H](O)c2cc(-c3ncnc4cc(N5CCOCC5)ccc34)c(F)cc2Cl)nn1 + CC(CO)NC(=O)c1cc(-c2ccc(Cl)cc2)nn(-c2cnn(C)c2)c1=O ?
84
